ASSAY_NOTES: Octanol-buffer partition coefficient, log D of the compound at pH 7.4 after 2 hrs by HPLC analysis
Assay type: physicochemical
READOUT: logD at 2 h

O=C(COc1cccc(C(=O)/C=C/c2ccccc2)c1)Nc1ccc2c(c1)COC2=O    2.79

# ---- query compound ----
Input: Tell us which logD at 2 h value is on record for O=C(COc1ccc(C(=O)/C=C/c2c(F)cccc2F)cc1)Nc1ccc2c(c1)COC2=O
Output: 2.99

---

ASSAY_NOTES: Cytotoxicity against mouse NIH/3T3 cells assessed as cell viability at 100 uM after 48 hrs by MTT assay relative to control
Type: cell-based, NIH3T3
CONDITION_INFO: read-out: Activity
Counter-ions that a name gives are not always drawn.
Overview of recorded viability at 48 h, 100 µM for various molecules
Report as a plain number; the unit % is understood.

COc1cccc2c1C(=O)c1c(O)c3c(c(O)c1C2=O)C[C@@](O)(C(=O)CO)C[C@@H]3O[C@H]1C[C@H](N)[C@H](O)[C@H](C)O1 [DOXORUBICIN HYDROCHLORIDE]    6.73
O=C(COc1cccc(C(=O)/C=C/c2ccccc2)c1)Nc1ccc2c(c1)COC2=O    67.6
O=C(COc1ccc(/C=C/C(=O)c2ccc(F)cc2)cc1)Nc1ccc2c(c1)COC2=O    80.2

Input: Tell us which viability at 48 h, 100 µM value is on record for COc1cccc(/C=C/C(=O)c2ccc(OCC(=O)Nc3ccc4c(c3)COC4=O)cc2)c1
Output: 62.6

Input: Tell us which viability at 48 h, 100 µM value is on record for COc1c(C)c2c(c(O)c1C/C=C(\C)CCC(=O)O)C(=O)OC2 [MYCOPHENOLIC ACID]
Output: 40.7

Input: Tell us which viability at 48 h, 100 µM value is on record for O=C(COc1ccc(C(=O)/C=C/c2c(F)cccc2F)cc1)Nc1ccc2c(c1)COC2=O
Output: 70.2

Input: Tell us which viability at 48 h, 100 µM value is on record for COc1ccc(/C=C/C(=O)c2ccc(OCC(=O)Nc3ccc4c(c3)COC4=O)cc2)cc1
Output: 63.7

---

Target or system Inosine-5'-monophosphate dehydrogenase 2 (Homo sapiens); recorded quantity IC50.
Report as a plain number; the unit nM is understood.

O=C(COc1ccc(C(=O)/C=C/c2ccccc2)cc1)Nc1ccc2c(c1)COC2=O    790

Input: Report IC50 from Inosine-5'-monophosphate dehydrogenase 2 (Homo sapiens) testing of COc1cc(/C=C/C(=O)c2ccc(OCC(=O)Nc3ccc4c(c3)COC4=O)cc2)cc(OC)c1OC
Output: 7380

Input: Report IC50 from Inosine-5'-monophosphate dehydrogenase 2 (Homo sapiens) testing of O=C(COc1ccc(/C=C/C(=O)c2ccc(F)cc2)cc1)Nc1ccc2c(c1)COC2=O
Output: 570

Input: Report IC50 from Inosine-5'-monophosphate dehydrogenase 2 (Homo sapiens) testing of COc1ccc(/C=C/C(=O)c2ccc(OCC(=O)Nc3ccc4c(c3)COC4=O)cc2)cc1
Output: 660

---

ASSAY_NOTES: Cytotoxicity against human PBMC assessed as cell viability at 10 uM after 48 hrs by MTT assay relative to control
Format: cell-based
CONDITION_INFO: read-out: Activity
READOUT: viability at 48 h, 10 µM (%)
Report as a plain number; the unit % is understood.

COc1ccc(/C=C/C(=O)c2ccc(OCC(=O)Nc3ccc4c(c3)COC4=O)cc2)cc1    86
O=C(COc1ccc(C(=O)/C=C/c2c(F)cccc2F)cc1)Nc1ccc2c(c1)COC2=O    77

Input: Tell us which viability at 48 h, 10 µM value is on record for COc1c(C)c2c(c(O)c1C/C=C(\C)CCC(=O)O)C(=O)OC2
Output: 63
